Item-by-item account of normalized RNA/DNA level without ligand (log10)
B1: library; a variant is named by its letters at N, in order (parent)
chain: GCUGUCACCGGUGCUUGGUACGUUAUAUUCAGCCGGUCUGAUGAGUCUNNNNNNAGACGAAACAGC

- Variants of: B1
- protocol_notes: normalized RNA/DNA level without ligand (relative to sTRSVctl = 100) (log10 (% of sTRSVctl)); HEK293T overexpressing SLC46A1; higher = less ribozyme self-cleavage, higher mRNA level
- test_conditions: without (6R,S)-folinic acid; ligand present: no
reported_property: normalized RNA/DNA level without ligand (log10)

[[record]]
alteration = "GAGUUG"
observed_measurement = 1.97

[[record]]
alteration = "GAACAU"
observed_measurement = 1.97

[[record]]
alteration = "AACGAU"
observed_measurement = 1.96

[[record]]
alteration = "UAUUGU"
observed_measurement = 1.89

[[record]]
alteration = "CUUCGU"
observed_measurement = 2.05

[[record]]
alteration = "AAUCUA"
observed_measurement = 1.99

[[record]]
alteration = "GUGAUU"
observed_measurement = 2.01

[[record]]
alteration = "GGCUCA"
observed_measurement = 2.07

[[record]]
alteration = "GCAAGC"
observed_measurement = 2.01

[[record]]
alteration = "CCGCUU"
observed_measurement = 2.04

[[record]]
alteration = "CGCGUU"
observed_measurement = 2.09

[[record]]
alteration = "AACGUC"
observed_measurement = 2.07

[[record]]
alteration = "AUAGGC"
observed_measurement = 2.01

[[record]]
alteration = "GAGCCG"
observed_measurement = 2.05

[[record]]
alteration = "CAUUCG"
observed_measurement = 2.04

[[record]]
alteration = "UCCCCU"
observed_measurement = 2.06

[[record]]
alteration = "UAGACA"
observed_measurement = 1.97

[[record]]
alteration = "GAAAAA"
observed_measurement = 1.99

[[record]]
alteration = "ACUGAC"
observed_measurement = 2

[[record]]
alteration = "ACAGUU"
observed_measurement = 2

[[record]]
alteration = "AAAGGA"
observed_measurement = 1.91

[[record]]
alteration = "GGCGUC"
observed_measurement = 2.06

[[record]]
alteration = "AGCAAC"
observed_measurement = 2

[[record]]
alteration = "UUCGAG"
observed_measurement = 1.77

[[record]]
alteration = "GGACAG"
observed_measurement = 1.95

[[record]]
alteration = "ACGUAC"
observed_measurement = 2.02

[[record]]
alteration = "GCCGCC"
observed_measurement = 2.02

[[record]]
alteration = "GGGCCC"
observed_measurement = 2.1

[[record]]
alteration = "UUAUGG"
observed_measurement = 1.8

[[record]]
alteration = "CGGAGU"
observed_measurement = 2.02

[[record]]
alteration = "AAUUAC"
observed_measurement = 1.98

[[record]]
alteration = "CGAAGU"
observed_measurement = 1.99

[[record]]
alteration = "AAGAAC"
observed_measurement = 1.99

[[record]]
alteration = "AUUUCU"
observed_measurement = 2.03

[[record]]
alteration = "AGACGA"
observed_measurement = 1.99

[[record]]
alteration = "GAUCUA"
observed_measurement = 2.03

[[record]]
alteration = "UCAGGU"
observed_measurement = 1.92

[[record]]
alteration = "ACCUCA"
observed_measurement = 2.05

[[record]]
alteration = "UCGGGU"
observed_measurement = 2

[[record]]
alteration = "CAUUAC"
observed_measurement = 1.98

[[record]]
alteration = "GUGUUA"
observed_measurement = 1.99

[[record]]
alteration = "GCACUC"
observed_measurement = 2.02

[[record]]
alteration = "CAGCAA"
observed_measurement = 1.96

[[record]]
alteration = "AGGGCU"
observed_measurement = 2.02

[[record]]
alteration = "ACUUGU"
observed_measurement = 2.06

[[record]]
alteration = "CGACGG"
observed_measurement = 1.93

[[record]]
alteration = "ACCGUU"
observed_measurement = 2.01

[[record]]
alteration = "AUCAAA"
observed_measurement = 2

[[record]]
alteration = "UUCUUU"
observed_measurement = 2.05

[[record]]
alteration = "GUCAUC"
observed_measurement = 2.06

[[record]]
alteration = "UCAAUG"
observed_measurement = 1.81

[[record]]
alteration = "CACAUC"
observed_measurement = 2.03

[[record]]
alteration = "GGAUGC"
observed_measurement = 1.91

[[record]]
alteration = "CUAUUG"
observed_measurement = 2.02

[[record]]
alteration = "GCGUGU"
observed_measurement = 1.97

[[record]]
alteration = "ACAUUC"
observed_measurement = 2.07

[[record]]
alteration = "GUUGUG"
observed_measurement = 1.88

[[record]]
alteration = "CUACGU"
observed_measurement = 2

[[record]]
alteration = "GCCCCA"
observed_measurement = 2.03

[[record]]
alteration = "UACGAA"
observed_measurement = 1.91

[[record]]
alteration = "ACGCUG"
observed_measurement = 2.01

[[record]]
alteration = "ACCUUC"
observed_measurement = 2.04

[[record]]
alteration = "GCGCCU"
observed_measurement = 2.1

[[record]]
alteration = "AUUGGU"
observed_measurement = 1.88

[[record]]
alteration = "UAAAUA"
observed_measurement = 1.95

[[record]]
alteration = "UCCUCC"
observed_measurement = 2.09

[[record]]
alteration = "GAAUGC"
observed_measurement = 1.94

[[record]]
alteration = "CCAUCA"
observed_measurement = 2.03

[[record]]
alteration = "CACUGU"
observed_measurement = 2.06

[[record]]
alteration = "UGUGCA"
observed_measurement = 1.91

[[record]]
alteration = "UGCGCG"
observed_measurement = 1.81

[[record]]
alteration = "AAGAAG"
observed_measurement = 1.86

[[record]]
alteration = "CGGUCU"
observed_measurement = 2.1

[[record]]
alteration = "CUCGUA"
observed_measurement = 2

[[record]]
alteration = "GAUAGG"
observed_measurement = 1.92

[[record]]
alteration = "AGGCAA"
observed_measurement = 1.99

[[record]]
alteration = "ACUCUG"
observed_measurement = 1.93

[[record]]
alteration = "AGCACC"
observed_measurement = 2.08

[[record]]
alteration = "AAAAUC"
observed_measurement = 2.05

[[record]]
alteration = "UACACG"
observed_measurement = 1.81

[[record]]
alteration = "UCCCAG"
observed_measurement = 1.96

[[record]]
alteration = "CAUGUA"
observed_measurement = 1.95

[[record]]
alteration = "UACGUC"
observed_measurement = 2.07

[[record]]
alteration = "ACUUCA"
observed_measurement = 2.01

[[record]]
alteration = "AUGCGA"
observed_measurement = 1.98

[[record]]
alteration = "CGAAUA"
observed_measurement = 1.95

[[record]]
alteration = "GAUCAC"
observed_measurement = 2.03

[[record]]
alteration = "CUCGCU"
observed_measurement = 2.06

[[record]]
alteration = "GUUGUC"
observed_measurement = 2.02

[[record]]
alteration = "GUUUGU"
observed_measurement = 2.03

[[record]]
alteration = "UAGACU"
observed_measurement = 2.01

